This collection of values is drawn from patent US8829011B2.

For each entry below, report its pKi value.
Target: human recombinant 5-HT2B receptor (Homo sapiens)
Sequence (P41595 whole entry): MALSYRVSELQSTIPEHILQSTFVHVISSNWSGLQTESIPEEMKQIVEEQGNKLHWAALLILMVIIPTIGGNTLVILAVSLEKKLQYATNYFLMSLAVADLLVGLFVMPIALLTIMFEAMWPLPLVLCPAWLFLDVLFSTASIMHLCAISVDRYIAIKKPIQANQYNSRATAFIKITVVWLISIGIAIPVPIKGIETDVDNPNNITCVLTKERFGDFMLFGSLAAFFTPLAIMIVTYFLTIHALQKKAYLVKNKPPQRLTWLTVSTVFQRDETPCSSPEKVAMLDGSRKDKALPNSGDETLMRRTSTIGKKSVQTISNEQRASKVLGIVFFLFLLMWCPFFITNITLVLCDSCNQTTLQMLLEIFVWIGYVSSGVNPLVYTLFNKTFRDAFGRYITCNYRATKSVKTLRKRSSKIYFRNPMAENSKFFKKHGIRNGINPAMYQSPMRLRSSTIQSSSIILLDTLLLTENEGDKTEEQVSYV
Test: Affinity for 5-HT2B receptor binding sites (competitive radioligand binding, [3H]mesulergine)
Settings: membranes of CHO with h5-HT2B, * = tested as hydrochloride salt
Counter-ions that a name gives are not always drawn.
Remember, pKi is on a log scale: it is -log10 of the molar concentration.

Prompt line: For human recombinant 5-HT2B receptor (Homo sapiens), give pKi of the listed compound: Clc1ccc(-c2nc(N3CCOCC3)nc3c2CCNCC3)cc1 [Example 58]
Response line: 7.52

Prompt line: For human recombinant 5-HT2B receptor (Homo sapiens), give pKi of the listed compound: Cc1ccc(-c2nc(N3CCCC3)nc3c2CNCC3)cc1 [Example 47]
Response line: 6.30

Prompt line: For human recombinant 5-HT2B receptor (Homo sapiens), give pKi of the listed compound: N#Cc1ccc(-c2nc(N3CCCCCC3)nc3c2CCN(Cc2ccccc2)C3)cc1 [Example 37]
Response line: 5.89

Prompt line: For human recombinant 5-HT2B receptor (Homo sapiens), give pKi of the listed compound: Cc1ccc(-c2nc(N3CCOC[C@@H]3C)nc3c2CCNCC3)cc1 [Example 94]
Response line: 7.82

Prompt line: For human recombinant 5-HT2B receptor (Homo sapiens), give pKi of the listed compound: CCN(CC)c1nc2c(c(-c3ccc(F)cc3)n1)CCNCC2 [Example 9, hydrochloride]
Response line: 8.15

Prompt line: For human recombinant 5-HT2B receptor (Homo sapiens), give pKi of the listed compound: CC1CCCCN1c1nc2c(c(-c3ccc(F)cc3)n1)CCCNC2 (stereo not shown) [Example 6]
Response line: 6.70

Prompt line: For human recombinant 5-HT2B receptor (Homo sapiens), give pKi of the listed compound: Fc1ccc(-c2nc(N3CCCCCC3)nc3c2CCN(Cc2ccccc2)C3)cc1 [Example 31]
Response line: 5.80

Prompt line: For human recombinant 5-HT2B receptor (Homo sapiens), give pKi of the listed compound: C[C@H]1COCCN1c1nc2c(c(-c3ccc(Cl)cc3)n1)CCNCC2 [Example 96]
Response line: 7.46

Prompt line: For human recombinant 5-HT2B receptor (Homo sapiens), give pKi of the listed compound: C[C@@H]1CCC[C@H](C)N1c1nc2c(c(-c3ccc(Cl)c(F)c3)n1)CCNCC2 [Example 84]
Response line: 8.70

Prompt line: For human recombinant 5-HT2B receptor (Homo sapiens), give pKi of the listed compound: Cc1ccc(-c2nc(N3[C@H](C)CCC[C@@H]3C)nc3c2CCNCC3)cc1Cl [Example 79]
Response line: 8.15

Prompt line: For human recombinant 5-HT2B receptor (Homo sapiens), give pKi of the listed compound: CCN(CC)c1nc2c(c(-c3ccc(OC)cc3)n1)CCNC2 [Example 28]
Response line: 7.82

Prompt line: For human recombinant 5-HT2B receptor (Homo sapiens), give pKi of the listed compound: COc1ccc(-c2nc(N3CCCC3C)nc3c2CCNCC3)cc1 (stereo not shown) [Example 80]
Response line: 8.22

Prompt line: For human recombinant 5-HT2B receptor (Homo sapiens), give pKi of the listed compound: CCN(C)c1nc2c(c(-c3ccc(F)cc3)n1)CNCC2 [Example 44, hydrochloride]
Response line: 6.74

Prompt line: For human recombinant 5-HT2B receptor (Homo sapiens), give pKi of the listed compound: Cc1ccc(-c2nc(N3CCCCC3C)nc3c2CCCNC3)cc1 (stereo not shown) [Example 8]
Response line: 7.00

Prompt line: For human recombinant 5-HT2B receptor (Homo sapiens), give pKi of the listed compound: COc1ccc(-c2nc(N3CCCC3C)nc3c2CCNCC3)cc1Cl (stereo not shown) [Example 66]
Response line: 8.10
